- tested-system: T1, extracellular domain of human BCMA (human, UniProt Q02223 1-54)
- T1 construct: amine-linked to Octet AR2G tips; also called hsBCMA; BCMA (human)
- T1 sequence: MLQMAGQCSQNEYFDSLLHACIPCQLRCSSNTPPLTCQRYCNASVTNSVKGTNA
- experiment-notes: Octet BLI; Fab 200 nM

{"columns": ["binder", "unit-spec", "Kd"],
 "data": [
  ["AB200-(2Vk44)_R2-VH-v70 (Fab, V domains shown) VH: QVQLVQSGAEVKKPGSSVKVSCKASGGTFSNYWIHWVRQAPGQGLEWMGATYRIHSDTNYNQKYKSRVTITADKSTSTAYMELSSLRSEDTAVYYCARGAVYHGYDVIDNWGQGTLVTVSS VL: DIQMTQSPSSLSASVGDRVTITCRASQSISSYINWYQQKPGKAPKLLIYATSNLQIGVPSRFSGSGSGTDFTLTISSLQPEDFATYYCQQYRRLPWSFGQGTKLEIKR", "nM", 12.4],
  ["AB200-(2Vk44)_R2-VH-v7 (Fab, V domains shown) VH: QVQLVQSGAEVKKPGSSVKVSCKASGGTYSNYWIHWVRQAPGQGLEWMGATYRSHSTTYYAQKFKSRVTITADKSTSTAYMELSSLRSEDTAVYYCARGAIYHGFDVIDNWGQGTLVTVSS VL: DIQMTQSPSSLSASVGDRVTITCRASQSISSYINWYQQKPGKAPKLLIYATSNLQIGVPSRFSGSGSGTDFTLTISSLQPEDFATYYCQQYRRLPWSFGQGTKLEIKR", "nM", 40.6],
  ["AB200-(2Vk44)_R2-VH-v53 (Fab, V domains shown) VH: QVQLVQSGAEVKKPGSSVKVSCKASGGSFSNYWIHWVRQAPGQGLEWMGATYRIHSDTNYNQKYKSRVTITADKSTSTAYMELSSLRSEDTAVYYCARGAIFHGYDVIDNWGQGTLVTVSS VL: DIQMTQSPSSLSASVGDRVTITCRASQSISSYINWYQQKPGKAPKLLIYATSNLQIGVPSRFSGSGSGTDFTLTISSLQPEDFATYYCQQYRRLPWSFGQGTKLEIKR", "nM", 52.5],
  ["AB200-(2Vk44)_R2-VH-v24 (Fab, V domains shown) VH: QVQLVQSGAEVKKPGSSVKVSCKASGGTFSNYWIHWVRQAPGQGLEWMGGTYRSHSDTYYNEKFKSRVTITADKSTSTAYMELSSLRSEDTAVYYCARGAIFHGYDVIDNWGQGTLVTVSS VL: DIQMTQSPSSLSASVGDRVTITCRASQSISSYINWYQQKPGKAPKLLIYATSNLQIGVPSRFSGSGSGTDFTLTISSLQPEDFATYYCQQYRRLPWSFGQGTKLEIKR", "nM", 6.44]
]}

Data provenance is patent US20240327535A1.
